Tested on: Plasmodium falciparum
protocol-notes: Screen against P. falciparum Asexual Blood Stage (ABS), at 5uM
Assay type: functional, Dd2
condition-details: tested at 5 uM
In all, about 65,000 compounds went through this assay and about 2,100 (3.2%) showed an effect of 50% or more. The median lay at about -52%. Only a selection was taken, and strong results are over-represented in it overall.
readout-name: INHIBITION (%)
Report the value in % with no unit label.

Here's what some known entries look like.
{"compound": "CC(C)CNC(=O)[C@H]1C[C@H]2CN(C(=O)Nc3ccc(F)cc3)C[C@@H]1O2", "INHIBITION, %": -5.8}
{"compound": "COc1cccc(Cn2c(C3CCNCC3)cc3cccnc32)c1", "INHIBITION, %": 66.1}
{"compound": "CCNc1nc2c(s1)C(=O)CN(C(=O)NCc1ccccc1)C2", "INHIBITION, %": -146}

Lab note: measured INHIBITION of CCN(CC)CC1CN(Cc2cccc(C#N)c2)Cc2nccn2C1 (configuration not stated) was -6.06

Lab note: measured INHIBITION of CC(C)Oc1ncnc2c1CCN(Cc1cccs1)CC2 was -52.8

Lab note: measured INHIBITION of CC(C)[C@@H]1CN(CCOc2ccccc2)C[C@H]1NS(=O)(=O)N(C)C was 40.3

Lab note: measured INHIBITION of COc1cccc(COCC(=O)N2CCCC2Cn2cccn2)c1 (configuration not stated) was -10.1

---

Entries annotated with measured INHIBITION
Test system: Plasmodium falciparum
protocol-notes: Screen against P. falciparum Asexual Blood Stage (ABS), at 5uM
Assay type: functional, Dd2
condition-details: tested at 5 uM
Screen size: about 65,000 compounds; about 2,100 (3.2%) showed an effect of 50% or more. The median lay at about -52%. The sample holds strong results, similar compounds and a random draw of the others, so the mix is not that of the screen.
Report the value in % with no unit label.

Here's what some known entries look like.
{"compound": "CN(Cc1cccnc1)[C@@H]1CN(Cc2nccn2C)[C@@H]2CCCO[C@H]12", "INHIBITION (%)": -13.9}
{"compound": "Cc1ccc(C(=O)N2C[C@H]3CCC[C@@]3(COc3ccccn3)C2)nc1", "INHIBITION (%)": 9.4}
{"compound": "CN(Cc1ccco1)[C@@H]1CN(Cc2ccco2)[C@@H]2CCCO[C@H]12", "INHIBITION (%)": 11.7}
{"compound": "CCn1nc(C)c(CNC(=O)c2nnc3ccc(Cl)cc3n2)c1C", "INHIBITION (%)": -2.95}

Now take the following compound into account.
Lab note: measured INHIBITION of O=C(c1cocn1)N1C[C@H]2CCC[C@@]2(COc2ccccn2)C1 was 52.1

---

Test system: Plasmodium falciparum
protocol-notes: Screen against P. falciparum Asexual Blood Stage (ABS), at 5uM
Type: functional, Dd2
condition-details: tested at 5 uM
Hit rate of the full screen: of about 65,000 compounds, about 2,100 (3.2%) showed an effect of 50% or more. The median lay at about -52%. Many of the other results were omitted from the sample, so strong results are more common in it than they were.
readout-name: INHIBITION (%)
Report the value in % with no unit label.

Here's what some known entries look like.
{"compound": "Cc1nc(C)n(CC2CCCN2Cc2nnc(-c3ccco3)o2)n1 (stereo unspecified)", "target-system": "Plasmodium falciparum", "INHIBITION [%]": -53.7}
{"compound": "Cc1cc(Oc2ccccc2C)nc(C2CCCN2)n1 (stereo unspecified)", "target-system": "Plasmodium falciparum", "INHIBITION [%]": 25.4}
{"compound": "N[C@@H]1c2ccccc2C2(CCN(c3cccc(C(F)(F)F)n3)CC2)[C@H]1O", "target-system": "Plasmodium falciparum", "INHIBITION [%]": -35.9}
{"compound": "O=S(=O)(NC1CCC12CCN(CC1CCOCC1)CC2)c1ccccc1 (stereo unspecified)", "target-system": "Plasmodium falciparum", "INHIBITION [%]": -62.3}
{"compound": "CCOC(=O)CNC(=O)NCc1cccn1Cc1ccccc1F", "target-system": "Plasmodium falciparum", "INHIBITION [%]": -158}

Now take the following compound into account.
Lab note: measured INHIBITION of Cc1cccc(NC2CCN(C(=O)Nc3ccc(F)c(F)c3)CC2)n1 was -20.3
